Give measured Activity on Biacore (%) for each item. Keep answers brief.
targetOrSystem: T1, human GARP-TGF-β1 complex (recombinant complex of human GARP and latent human TGF-β1) (human, UniProt Q14392 20-627; P01137 30-278; P01137 279-390)
T1 construct: also called huGARP-TGF-β1; hGARP-TGF-β1
T1 sequence (Q14392 20-627 limits assumed, chain 1 of 3): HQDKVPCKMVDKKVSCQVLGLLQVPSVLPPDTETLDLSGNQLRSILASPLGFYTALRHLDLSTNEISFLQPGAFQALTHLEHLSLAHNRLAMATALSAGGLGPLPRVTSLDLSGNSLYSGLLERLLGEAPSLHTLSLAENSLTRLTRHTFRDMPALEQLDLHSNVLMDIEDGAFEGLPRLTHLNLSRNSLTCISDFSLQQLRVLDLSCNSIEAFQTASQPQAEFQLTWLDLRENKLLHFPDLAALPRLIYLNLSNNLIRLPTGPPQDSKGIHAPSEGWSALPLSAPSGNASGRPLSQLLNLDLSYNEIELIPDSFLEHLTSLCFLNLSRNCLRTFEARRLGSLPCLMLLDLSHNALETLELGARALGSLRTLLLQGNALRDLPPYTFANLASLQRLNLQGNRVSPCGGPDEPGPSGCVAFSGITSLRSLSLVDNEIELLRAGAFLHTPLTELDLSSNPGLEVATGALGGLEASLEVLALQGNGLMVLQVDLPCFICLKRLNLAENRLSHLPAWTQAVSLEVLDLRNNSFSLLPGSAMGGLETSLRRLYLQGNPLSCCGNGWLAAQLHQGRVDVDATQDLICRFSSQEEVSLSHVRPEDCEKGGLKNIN
T1 sequence (P01137 30-278 limits assumed, chain 2 of 3): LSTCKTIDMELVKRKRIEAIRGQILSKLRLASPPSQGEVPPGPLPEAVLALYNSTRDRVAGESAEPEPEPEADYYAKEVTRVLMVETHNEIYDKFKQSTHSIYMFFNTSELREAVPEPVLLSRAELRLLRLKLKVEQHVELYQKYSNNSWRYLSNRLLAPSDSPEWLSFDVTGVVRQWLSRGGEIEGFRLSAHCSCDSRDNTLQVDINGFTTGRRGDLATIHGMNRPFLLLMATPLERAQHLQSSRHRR
T1 sequence (P01137 279-390 limits assumed, chain 3 of 3): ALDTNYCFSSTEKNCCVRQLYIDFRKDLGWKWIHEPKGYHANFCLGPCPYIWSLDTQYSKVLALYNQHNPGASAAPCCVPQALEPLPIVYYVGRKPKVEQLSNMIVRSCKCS
assay: SPR Biacore 3000, chip ~4000 RU hGARP-TGF-β; slope vs -20°C reference (=100%); sample 0 d, 37°C arm
Description: From the intermediate concentration of all samples at 1 mg/ml described above, an extra 1/250 dilution was done for SPR analysis to yield a final concentration of 4 μg/ml. This 1/250 dilution took place for all conditions in two steps: a) 5 μl (1 mg/ml)+120 μl HBS-EP (SPR buffer) and b) an extra 10× dilution (15 μl+135 μl HBS-EP). […] This was analyzed together with the stability samples to determine the slope of each curve after general fitting of the standards. […]
Supply the numeric figure in %, leaving out any unit text.

Form field: reported Activity on Biacore (%) of 39B6-ANK IgG4 S228P (antibody, V domains shown, Variant of 39B6-A in IgG4 S228P format; Positions are Kabat-type) VH: QVQLVQPGAEVRKPGASVKVSCKASGYRFTSYYIDWVRQAPGQGLEWMGRIDPEDAGTKYAQKFQGRVTMTADTSTSTVYVELSSLRSEDTAVYYCARNKWETVVVGDLMYEYEYWGQGTLVTVSS VL: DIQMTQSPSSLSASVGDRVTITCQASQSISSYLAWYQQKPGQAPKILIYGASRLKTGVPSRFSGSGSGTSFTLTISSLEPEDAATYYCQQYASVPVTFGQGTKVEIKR 130

Form field: reported Activity on Biacore (%) of 39B6-AYE (ARGX-115), IgG4 S228P (antibody, V domains shown) VH: QVQLVQPGAEVRKPGASVKVSCKASGYRFTSYYIDWVRQAPGQGLEWMGRIDPEDAGTKYAQKFQGRVTMTADTSTSTVYVELSSLRSEDTAVYYCARYEWETVVVGDLMYEYEYWGQGTLVTVSS VL: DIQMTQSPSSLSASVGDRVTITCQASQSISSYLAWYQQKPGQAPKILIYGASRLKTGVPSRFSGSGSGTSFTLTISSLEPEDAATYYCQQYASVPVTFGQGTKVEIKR 93.5

Form field: reported Activity on Biacore (%) of 39B6-ANR IgG4 S228P (antibody, V domains shown, Variant of 39B6-A in IgG4 S228P format; Positions are Kabat-type) VH: QVQLVQPGAEVRKPGASVKVSCKASGYRFTSYYIDWVRQAPGQGLEWMGRIDPEDAGTKYAQKFQGRVTMTADTSTSTVYVELSSLRSEDTAVYYCARNRWETVVVGDLMYEYEYWGQGTLVTVSS VL: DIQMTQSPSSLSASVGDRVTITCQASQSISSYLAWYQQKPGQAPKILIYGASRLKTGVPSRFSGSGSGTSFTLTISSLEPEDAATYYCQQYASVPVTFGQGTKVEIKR 101

Form field: reported Activity on Biacore (%) of 39B6-AVE IgG4 S228P (antibody, V domains shown, Variant of 39B6-A in IgG4 S228P format; Positions are Kabat-type) VH: QVQLVQPGAEVRKPGASVKVSCKASGYRFTSYYIDWVRQAPGQGLEWMGRIDPEDAGTKYAQKFQGRVTMTADTSTSTVYVELSSLRSEDTAVYYCARVEWETVVVGDLMYEYEYWGQGTLVTVSS VL: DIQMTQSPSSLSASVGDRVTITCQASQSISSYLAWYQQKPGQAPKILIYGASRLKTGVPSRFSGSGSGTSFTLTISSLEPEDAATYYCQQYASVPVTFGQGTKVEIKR 99.5

This collection of values is drawn from patent US20210324061A1.
